# measurement-context: buffer, pH 10
In this section, each of the molecules is paired with its reported logS0.
Lab note: write the figure by itself, no unit.

For orientation, consider the following solved cases.
>>> df
                                   molecule  quantity  measurement
0        CCN1c2ncccc2C(=O)N(C)c2ccc(Cl)nc21     logS0        -4.11
1  CC(CCc1ccccc1)NCC(O)c1ccc(O)c(C(N)=O)c1 (stereo not given) [LABETALOL]     logS0        -3.41
2             O=C(O)c1ccccc1 [BENZOIC ACID]     logS0        -1.58
3  CC(=O)OCC(=O)[C@@]1(O)CC[C@H]2[C@@H]3CCC4=CC(=O)CC[C@]4(C)[C@H]3C(=O)C[C@@]21C [CORTISONE ACETATE]     logS0        -4.21
4          CCCCn1c(C)nc2c1c(=O)n(C)c(=O)n2C     logS0        -1.75

Reported logS0 for CC(C)N(CCC(C(N)=O)(c1ccccc1)c1ccccn1)C(C)C (stereo not given) [DISOPYRAMIDE] : what is it? -2.38

Reported logS0 for CCC1(C2=CCCCCC2)C(=O)NC(=O)NC1=O [HEPTABARBITAL] : what is it? -2.91

Reported logS0 for CC(C)NCC(O)COc1cccc2ccccc12 (stereo not given) [PROPRANOLOL] : what is it? -3.92

Reported logS0 for O=C1NC(=O)C(c2ccccc2)(c2ccccc2)N1 [PHENYTOIN] : what is it? -4.15

Reported logS0 for CCN1c2ncccc2C(=O)N(C)c2c(C)cc(OC)nc21 : what is it? -2.62

Reported logS0 for CCOC(=O)c1ccc(N)cc1 [BENZOCAINE] : what is it? -2.34

Reported logS0 for C[C@H]1C[C@H]2[C@@H]3CCC4=CC(=O)C=C[C@]4(C)[C@@]3(F)[C@@H](O)C[C@]2(C)[C@@]1(O)C(=O)CO [BETAMETHASONE] : what is it? -3.77

Reported logS0 for Cc1ccnc2c1NC(C#N)c1cccnc1N2C1CC1 (stereo not given) : what is it? -4.74

Reported logS0 for CN1C(=O)c2cccnc2N(C(C)(C)C)c2ncccc21 : what is it? -4.85

Reported logS0 for O=C1Nc2ccc(Cl)cc2C(c2ccccc2Cl)=NC1O (stereo not given) [LORAZEPAM] : what is it? -3.74

Reported logS0 for Nc1ccc(/N=N/c2ccccc2)c(N)n1 [PHENAZOPYRIDINE] : what is it? -4.53

Reported logS0 for CCCCC[C@H](O)/C=C/[C@H]1[C@H](O)CC(=O)[C@@H]1CCCCCCC(=O)O [ALPROSTADIL] : what is it? -3.67

Reported logS0 for CC(=O)OCC(=O)[C@@]1(O)CC[C@H]2[C@@H]3CCC4=CC(=O)CC[C@]4(C)[C@H]3[C@@H](O)C[C@@]21C [HYDROCORTISONE ACETATE] : what is it? -4.34

Reported logS0 for CCCCC1(CC=C(C)C)C(=O)NC(=O)NC1=O : what is it? -3.55

Reported logS0 for CCC1(C2=CCCCC2)C(=O)NC(=O)NC1=O [CYCLOBARBITAL] : what is it? -2.12

---

# measurement-context: buffer, pH 10
In this section, each of the compounds is paired with its reported logS0.
Lab note: write the figure by itself, no unit.

                                   compound  measurement
0                CN1C(=O)c2cccnc2Oc2ccccc21        -3.76
1  CCOC(=O)OCn1c([S+]([O-])Cc2nccc(OC)c2OC)nc2cc(C(=O)OC)c(C)cc21 (stereo not given)        -5.21
2  CCCCC[C@H](O)/C=C/[C@H]1[C@H](O)CC(=O)[C@@H]1C/C=C\CCCC(=O)O        -2.47
3  COc1cc2c(N)nc(N3CCN(C(=O)OCC(C)(C)O)CC3)nc2c(OC)c1OC        -3.64

Here is the next item to consider.
Reported logS0 for C[C@@H]1C[C@H]2[C@@H]3CCC4=CC(=O)C=C[C@]4(C)[C@@]3(F)[C@@H](O)C[C@]2(C)[C@@]1(O)C(=O)CO : what is it? -3.59

---

# measurement-context: buffer, pH 10
quantity: logS0
Lab note: write the figure by itself, no unit.

Reported logS0 for C=C(Br)CC1(C(C)CC)C(=O)NC(=O)NC1=O (stereo unspecified) : what is it? -2.65

Reported logS0 for COC(=O)c1cc2nc([S+]([O-])Cc3nccc(OC)c3OC)[nH]c2cc1C (stereo unspecified) : what is it? -4.41

Reported logS0 for C=CCOc1ccc(CC(=O)O)cc1Cl : what is it? -3.13

Reported logS0 for Cc1nnc2n1-c1ccc(Cl)cc1C(c1ccccc1Cl)=NC2 : what is it? -4.04

Reported logS0 for CCOC(=O)c1ccc(O)cc1 : what is it? -2.38

Reported logS0 for COC1=CC(=O)C[C@@H](C)[C@]12Oc1c(Cl)c(OC)cc(OC)c1C2=O : what is it? -4.83
